Tested on: PHKG2;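 also: KINOMEscan kinase panel screen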
Conditions: concentration: 1 μM,replicates: in singlicate; n = 1
Entries and their %Inh values follow.
Unit % implied. Number only.

Cl.Cl.NC[C@H](CC1CCCCC1)NC(=O)c1cc(Br)c(-c2ccnc3[nH]ccc23)s1 [GSK1581427]	19
O=C(NCCNc1ccnc(NCc2ccc(F)cc2)n1)c1cc2ccccc2s1 [GSK1379944]	0
Cc1ccc2c(-c3ccncc3)c(-c3ccc(F)cc3)nn2c1.Cl [GW461484]	0
C[C@@H](Oc1cc(-c2cnn(C3CCNCC3)c2)cnc1N)c1c(Cl)ccc(F)c1Cl	7
CNC(=O)c1ccccc1Sc1ccc2c(/C=C/c3ccccn3)n[nH]c2c1	0
Cc1cc(C(=O)Nc2ccc(Oc3ccc4nc(NC(=O)C5CC5)cn4n3)cc2)nn1-c1ccccc1	0
CN(C)CCOc1ccc(-c2cc(-c3c[nH]nc3-c3ccccn3)ccn2)cc1 [GW835314]	0

Attention now shifts to the item below.
(Q) Any idea what its %Inh is? The compound is C[C@H]1Oc2cc(cnc2N)-c2c(nn(C)c2C#N)CN(C)C(=O)c2ccc(F)cc21
(A) 100
